Biological target: hGYS1 enzyme (recombinant hGYS1/GN1 protein) (Homo sapiens (Human), UniProt P13807)
Sequence (P13807 whole entry): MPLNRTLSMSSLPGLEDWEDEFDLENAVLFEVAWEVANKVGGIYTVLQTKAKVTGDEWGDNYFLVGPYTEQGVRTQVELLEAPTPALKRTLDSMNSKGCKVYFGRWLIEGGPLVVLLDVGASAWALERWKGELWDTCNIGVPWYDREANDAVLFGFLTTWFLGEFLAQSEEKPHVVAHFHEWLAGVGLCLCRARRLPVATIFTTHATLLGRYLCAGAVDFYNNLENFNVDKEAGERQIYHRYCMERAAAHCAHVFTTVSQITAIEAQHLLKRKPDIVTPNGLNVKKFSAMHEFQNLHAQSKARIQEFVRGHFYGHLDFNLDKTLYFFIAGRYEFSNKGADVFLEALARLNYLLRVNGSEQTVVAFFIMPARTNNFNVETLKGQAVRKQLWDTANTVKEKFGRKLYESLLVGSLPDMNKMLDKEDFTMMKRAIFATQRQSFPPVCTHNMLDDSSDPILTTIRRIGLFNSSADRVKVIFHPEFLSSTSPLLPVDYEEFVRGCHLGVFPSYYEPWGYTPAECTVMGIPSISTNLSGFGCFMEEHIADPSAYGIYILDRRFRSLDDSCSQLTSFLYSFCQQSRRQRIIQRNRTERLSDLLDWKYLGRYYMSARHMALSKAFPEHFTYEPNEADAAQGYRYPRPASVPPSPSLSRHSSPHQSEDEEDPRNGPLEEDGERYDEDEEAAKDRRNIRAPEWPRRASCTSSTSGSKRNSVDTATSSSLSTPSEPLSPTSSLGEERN
Sequence (P46976 whole entry partner): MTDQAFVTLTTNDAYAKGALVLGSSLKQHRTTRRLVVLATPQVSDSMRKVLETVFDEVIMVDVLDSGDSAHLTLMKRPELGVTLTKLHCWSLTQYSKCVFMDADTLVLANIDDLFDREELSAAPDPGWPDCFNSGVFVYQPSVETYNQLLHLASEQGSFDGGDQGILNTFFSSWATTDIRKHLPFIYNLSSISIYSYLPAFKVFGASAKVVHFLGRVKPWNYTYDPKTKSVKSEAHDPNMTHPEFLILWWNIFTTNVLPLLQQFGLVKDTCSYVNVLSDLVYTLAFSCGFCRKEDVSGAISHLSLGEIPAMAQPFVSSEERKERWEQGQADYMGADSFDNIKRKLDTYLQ
Assay: GYS1 coupled enzyme assay (PK/LDH)
Conditions: hGYS1/GN1 50 nM, UDP-Glucose 0.8 mM, G6P 1 mM; geometric mean of at least 2 runs
IC50 for assorted compounds
Answer with a number only, understood to be in nM.

>>> obs_value("CC(C)c1ccc(C(CC2CC2)NC(=O)[C@@H]2C[C@@H](F)CN2C(=O)Cc2cnn[nH]2)cc1F (single isomer, unassigned)")
262

Give its IC50 value. Item: CC(C)c1c(F)cc(C(NC(=O)[C@@H]2C[C@@H](F)CN2C(=O)Cc2cnn[nH]2)c2ccccc2)cc1F (single isomer, unassigned) [Compound 666] 2270

Give its IC50 value. Item: "Cc1ncc(CC(=O)N2C[C@H](F)C[C@H]2C(=O)N[C@@H](c2ccccc2)c2ccc(C(C)C)cc2)s1" 31

Give its IC50 value. Item: "Cn1c(=O)n(CC(=O)N2C[C@H](F)C[C@H]2C(=O)N[C@@H](c2ccccc2)c2ccc(C3CC3)c(F)c2)c2ccccc21" 32

Give its IC50 value. Item: "CN(C)C(=O)NCC(=O)N1C[C@H](F)C[C@H]1C(=O)N[C@@H](c1ccccc1)c1ccc(C2CC2)c(F)c1" 51
